Molecular target: UniProt P16257
Assay: Radioligand displacement of [3H]PK 11195 in C6 glioma cell / tumor lysate
Format: binding
Design: from tissue; host or cells: C6 glioma tumour and normal brain / other tissues of living rats
PROPERTY: IC50

Ask: Quick check: IC50 of `COc1ccc(OC)c(CN(C(=O)CF)c2ccccc2Oc2ccccc2)c1` ?
Result: ~12.6 nM

---

Molecular target: UniProt:P16257
Experiment: Radioligand displacement of [3H]PK 11195 in C6 glioma cell / tumor lysate
Assay type: binding
Design: from tissue; host or cells: C6 glioma tumour and normal brain / other tissues of living rats
Conditions: C6 glioma cell lysate / tumor lysate; read-out: IC50, displacement of [3H]PK 11195
PROPERTY: pIC50
Just so you know, pIC50 here is -log10 of the concentration in molar units; reply with that number alone.

Ask: I have this compound here, `COc1ccc(OC)c(CN(C(=O)CF)c2ccccc2Oc2ccccc2)c1` , and I need its recorded pIC50.
Result: 7.92
